Numbers sourced from patent US10479780B2.

- Target or system: human Src enzyme (Homo sapiens, UniProt P12931)
- Construct: purchased Carna Biosciences, Inc. 08-173
- Sequence (P12931 whole entry): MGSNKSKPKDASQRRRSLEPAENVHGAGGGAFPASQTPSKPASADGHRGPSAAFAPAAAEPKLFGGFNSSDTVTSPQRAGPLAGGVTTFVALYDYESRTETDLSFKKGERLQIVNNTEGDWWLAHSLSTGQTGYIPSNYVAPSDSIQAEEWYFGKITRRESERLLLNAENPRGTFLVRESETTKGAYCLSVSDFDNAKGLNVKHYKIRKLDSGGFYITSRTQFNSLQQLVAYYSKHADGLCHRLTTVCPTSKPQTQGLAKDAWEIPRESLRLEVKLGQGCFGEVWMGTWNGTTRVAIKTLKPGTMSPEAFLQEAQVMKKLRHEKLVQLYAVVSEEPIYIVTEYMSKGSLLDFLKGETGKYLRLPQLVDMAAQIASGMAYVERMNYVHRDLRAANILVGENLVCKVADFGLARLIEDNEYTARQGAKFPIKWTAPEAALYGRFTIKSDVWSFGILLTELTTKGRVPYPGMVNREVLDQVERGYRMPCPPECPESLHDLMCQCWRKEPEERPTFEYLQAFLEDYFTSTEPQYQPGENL
- Protocol details: Src enzyme inhibitory activity (time-resolved fluorometry, biotinylated peptide phosphorylation)
- Type: biochemical
- Condition notes: read-out: SRC_IC50
Reported endpoint: IC50 (nM)

Past entries and their recorded results:
Compound	Meas value
Cc1cc(Oc2c(F)cccc2F)ncc1-n1ncc(C(=O)c2cc3cc(OCC(F)F)c(N4C(=O)NC5(CCN(C6COC6)CC5)C4=O)cc3[nH]2)c1N	13
CC(C)N1CCC(c2cc3[nH]c(C(=O)c4cnn(-c5ccc(Oc6cccc(Cl)c6)cc5F)c4N)cc3cc2F)CC1	38
Cc1cc2cc(C(=O)c3cnn(-c4ccc(Oc5c(F)cccc5F)cc4C)c3N)[nH]c2cc1NS(C)(=O)=O	16
Nc1c(C(=O)c2cc3cc(F)c(NS(=O)(=O)C4CC4)cc3[nH]2)cnn1-c1c(Cl)cc(Oc2ccccc2F)cc1Cl	730
Cc1cc2cc(C(=O)c3cnn(-c4cnc(Oc5c(F)cccc5F)cc4C)c3N)[nH]c2cc1NS(=O)(=O)N1C2CCC1COC2	420

A = Cc1cc(-n2ncc(C(=O)c3cc4cc(OC5CCN(C(C)C)CC5)c(N5C(=O)N[C@@H](C)C5=O)cc4[nH]3)c2N)ccc1Oc1ccccc1F
B = Cc1cc2cc(C(=O)c3cnn(-c4ccc(Oc5ccccc5F)cc4C)c3N)[nH]c2cc1N1C(=O)NC2(CCNC2)C1=O (stereo not shown)
Task: Lab note: check whether A or B shows the higher recorded IC50. Identify your pick by its label.
Result: A

A = Cc1cc(Oc2c(F)cccc2F)ncc1-n1ncc(C(=O)c2cc3cc(C(C)C)c(NS(=O)(=O)C4CCCC4)cc3[nH]2)c1N
B = Cc1cc(Oc2cc(Cl)ccc2Cl)ncc1-n1ncc(C(=O)c2cc3cc(F)c(NS(C)(=O)=O)cc3[nH]2)c1N
C = Cc1cc(Oc2c(F)cccc2F)ncc1-n1ncc(C(=O)c2cc3cc(F)c(N4CCOC4=O)cc3[nH]2)c1N
Task: Reorder: IC50, max to min. A complete answer lists every label in the requested sequence.
Result: A, B, C
(A: 630 nM, B: 190 nM, C: 8.7 nM)

1 = Cc1cc(Oc2c(F)cccc2F)ncc1-n1ncc(C(=O)c2cc3cc(OCC(F)F)c(NS(=O)(=O)c4ccccc4Cl)cc3[nH]2)c1N
2 = Cc1cc(Oc2c(F)cccc2F)ncc1-n1ncc(C(=O)c2cc3cc(F)c(NC4CCN(S(C)(=O)=O)CC4)cc3[nH]2)c1N
3 = Cc1ccccc1-c1cc2[nH]c(C(=O)c3cnn(-c4cnc(Oc5c(F)cccc5F)cc4C)c3N)cc2cc1OC1CCN(C2CCCC2)CC1
Task: Write the entries in order, lowest recorded IC50 first. Lab note: final answer is the ordered label list.
Result: 2, 3, 1
(2: 41 nM, 3: 120 nM, 1: 890 nM)
